Source listed as patent US20210214434A1.

target: T1, human CD64 receptor expressed by Jurkat cells (Jurkat-CD64) (human, UniProt P12314 16-374); assay: flow cytometry competition on Jurkat-CD64 cells, displacement of Rituxan-A488 (25 µg/ml)
T1 construct: whole, on cells; also called hCD64; FcγRI (CD64)
T1 sequence (P12314 16-374): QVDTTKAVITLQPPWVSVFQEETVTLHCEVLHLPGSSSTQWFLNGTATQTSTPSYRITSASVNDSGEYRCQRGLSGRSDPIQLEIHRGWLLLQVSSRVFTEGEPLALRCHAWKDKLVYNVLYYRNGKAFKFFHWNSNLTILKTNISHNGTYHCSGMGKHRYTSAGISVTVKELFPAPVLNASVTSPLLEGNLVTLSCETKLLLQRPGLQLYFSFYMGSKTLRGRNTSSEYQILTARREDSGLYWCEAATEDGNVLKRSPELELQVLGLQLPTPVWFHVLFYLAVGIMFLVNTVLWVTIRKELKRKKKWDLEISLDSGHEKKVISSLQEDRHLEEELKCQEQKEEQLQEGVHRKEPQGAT
pIC50: −log10 of the molar value.
endpoint: pIC50

- Fc MST-HN fragment containing the mutations M252Y/S254T/T256E/H433K/N434F, produced in HEK-293 cells (other, UniProt P01857-1 104-330, looked up, name in EU numbering) DKTHTCPPCPAPELLGGPSVFLFPPKPKDTLYITREPEVTCVVVDVSHEDPEVKFNWYVDGVEVHNAKTKPREEQYNSTYRVVSVLTVLHQDWLNGKEYKCKVSNKALPAPIEKTISKAKGQPREPQVYTLPPSRDELTKNQVSLTCLVKGFYPSDIAVEWESNGQPENNYKTTPPVLDSDGSFFLYSKLTVDKSRWQQGNVFSCSVMHEALKFHYTQKSLSLSPGK: 6.31
- A3A-184EY_CHO (Y296W/K334N/P352S/A378V/V397M/N434Y), Fc variant produced in CHO cells (other, probably a misprint; also called Fc A3A-184EY CHO) DKTHTCPPCPAPELLGGPSVFLFPPKPKDTLMISRTPEVTCVVVDVSHEDPEVKFNWYVDGVEVHNAKTKPREEQWNSTYRVVSVLTVLHQDWLNGKEYKCKVSNKALPAPIENTISKAKGQPREPQVYTLSPSRDELTKNQVSLTCLVKGFYPSDIVVEWESNGQPENNYKTTPPMLDSDGSFFLYSKLTVDKSRWQQGNVFSCSVMHEALHYHYTQKSLSLSPGK: 7.15
- A3A-184AY_CHO (K334N/P352S/A378V/V397M/N434Y), Fc variant produced in CHO cells (other, also called Fc A3A-184AY CHO) DKTHTCPPCPAPELLGGPSVFLFPPKPKDTLMISRTPEVTCVVVDVSHEDPEVKFNWYVDGVEVHNAKTKPREEQYNSTYRVVSVLTVLHQDWLNGKEYKCKVSNKALPAPIENTISKAKGQPREPQVYTLSPSRDELTKNQVSLTCLVKGFYPSDIVVEWESNGQPENNYKTTPPMLDSDGSFFLYSKLTVDKSRWQQGNVFSCSVMHEALHYHYTQKSLSLSPGK: 7.08
- A3A-184AY_TGg, Fc variant A3A-184AY produced in the transgenic goat (other) DKTHTCPPCPAPELLGGPSVFLFPPKPKDTLMISRTPEVTCVVVDVSHEDPEVKFNWYVDGVEVHNAKTKPREEQYNSTYRVVSVLTVLHQDWLNGKEYKCKVSNKALPAPIENTISKAKGQPREPQVYTLSPSRDELTKNQVSLTCLVKGFYPSDIVVEWESNGQPENNYKTTPPMLDSDGSFFLYSKLTVDKSRWQQGNVFSCSVMHEALHYHYTQKSLSLSPGK: 7.06
